Measured values drawn from patent US20080292736A1 for this set.

# test-context: rat, in vivo
measurement-type: % Enhancement in bioavailability, Carum carvi + piperine, Frac 1. (Cc) (%)
# number only, unit % dropped from output

For this compound ( CC[C@H](C)[C@H](N)C(=O)O [Isoleucine] ), measured % Enhancement in bioavailability, Carum carvi + piperine, Frac 1. (Cc) is 44

% Enhancement in bioavailability, Carum carvi + piperine, Frac 1. (Cc) measured on CC(C)C[C@H](N)C(=O)O [Leucine] = 32

# compound C[C@@H]1O[C@@H](OC[C@H]2O[C@@H](Oc3c(-c4ccc(O)c(O)c4)oc4cc(O)cc(O)c4c3=O)[C@H](O)[C@@H](O)[C@@H]2O)[C@H](O)[C@H](O)[C@H]1O [Rutin] ; its % Enhancement in bioavailability, Carum carvi + piperine, Frac 1. (Cc) = 40

Entry under test: NCCCC[C@H](N)C(=O)O [Lysine] . Its % Enhancement in bioavailability, Carum carvi + piperine, Frac 1. (Cc) was 38

Notebook: COc1cc(/C=C/C(=O)CC(=O)/C=C/c2ccc(O)c(OC)c2)ccc1O [Curcumin] , % Enhancement in bioavailability, Carum carvi + piperine, Frac 1. (Cc) read as 51

The recorded % Enhancement in bioavailability, Carum carvi + piperine, Frac 1. (Cc) for CC(C)[C@H](N)C(=O)O [Valine] is 29
